Species on record: Rattus norvegicus
Experiment: DrugMatrix - Regimen: Daily Repeat
Assay type: toxicity, organism-based, Sprague-Dawley
Design: regimen Daily Repeat, gender Male, age 6-8 weeks
Conditions: in vivo, po, 0 mg/kg, 72 h, tissue Plasma, route oral GAVAGE, dose level Control, time 3 day, vehicle 100 % WATER
outcome_measure: GLUCOSE (mg/dL)

• CC(C)(C)c1ccc(C(=O)CCCN2CCC(OC(c3ccccc3)c3ccccc3)CC2)cc1 [EBASTINE] = 169.33
• COC(=O)C1=C(C)NC(C)=C(C(=O)OCC(C)C)C1c1ccccc1[N+](=O)[O-] (centres undefined) [NISOLDIPINE] = 148
• CC(C)NCC(O)COc1cccc2ccccc12 (centres undefined) [PROPRANOLOL] = 178.5
• C[C@@H]1C[C@@H]([C@H](O)CC2CC(=O)NC(=O)C2)C(=O)[C@@H](C)C1 [CYCLOHEXIMIDE] = 158.33
• Cc1ncc([N+](=O)[O-])n1CCO [METRONIDAZOLE] = 173.83
• C[N+](C)(C)CCO.[Cl-] [CHOLINE CHLORIDE] = 187.5
• CC(C)C[C@H](NC(=O)[C@@H](O)[C@H](N)Cc1ccccc1)C(=O)O [UBENIMEX] = 143
• ClC(Cl)Cl [CHLOROFORM] = 173.83
• Nc1ccn([C@@H]2CS[C@H](CO)O2)c(=O)n1 [LAMIVUDINE] = 135.67

====

Species on record: Rattus norvegicus
Assay: DrugMatrix - Regimen: Daily Repeat
Format: toxicity, organism-based, Sprague-Dawley
Parameters: regimen Daily Repeat, gender Male, age 6-8 weeks
Conditions: in vivo, iv, 0 mg/kg, 120 h, tissue Plasma, dose level Control, time 5 day, vehicle 100 % SALINE
outcome_measure: BLOOD UREA NITROGEN (mg/dL)

• COc1cccc2c1C(=O)c1c(O)c3c(c(O)c1C2=O)C[C@@](O)(C(=O)CO)C[C@@H]3O[C@H]1C[C@H](N)[C@H](O)[C@H](C)O1 [DOXORUBICIN] = 13.33
• CCc1c2c(nc3ccc(OC(=O)N4CCC(N5CCCCC5)CC4)cc13)-c1cc3c(c(=O)n1C2)COC(=O)[C@]3(O)CC [IRINOTECAN] = 18
• CCC1=C[C@@H]2CN(C1)Cc1c([nH]c3ccccc13)[C@@](C(=O)OC)(c1cc3c(cc1OC)N(C)[C@H]1[C@@](O)(C(=O)OC)[C@H](OC(C)=O)[C@]4(CC)C=CCN5CC[C@]31[C@@H]54)C2 [VINORELBINE] = 15.5

====

The following compounds are shown together with reported SODIUM values.
Organism: Rattus norvegicus
Experiment: DrugMatrix - Regimen: Daily Repeat
Type: toxicity, organism-based, Sprague-Dawley
Set-up: regimen Daily Repeat, gender Male, age 6-8 weeks
Conditions: in vivo, po, 10 mg/kg, 120 h, tissue Plasma, route oral GAVAGE, dose level Low, time 5 day, […]
outcome_measure: SODIUM

* CC(C)CC(N(C)C)C1(c2ccc(Cl)cc2)CCC1 (centres undefined) | 143.2 MEQ/L
* CCOC(=O)C1=C(C)NC(C)=C(C(=O)OC)C1c1cccc([N+](=O)[O-])c1 (centres undefined) | 144.07 MEQ/L
* COCCOC(=O)C1=C(C)NC(C)=C(C(=O)OC(C)C)C1c1cccc([N+](=O)[O-])c1 (centres undefined) | 143.1 MEQ/L
* COc1ccc2cc([C@H](C)C(=O)O)ccc2c1 | 143.27 MEQ/L
